The measured values listed here are drawn from patent US20250257075A1.

Tested on: AGS cells (KRAS G12D)
assay procedure: Cell viability assay, G12D
Type: cell-based, human
measurement context: Homo sapiens, 72 hrs, Cell Counting Kit-8
Description: The purpose of this cellular assay was to determine the effects of test compounds on the proliferation of human cancer cell lines NCI-H358 (ATCC-CRL5807) cells, AGS (ATCC-CRL-1739) cells, SW620 (ATCC-CCL-227) over a 3-day treatment period by quantifying the amount of NADPH present at endpoint using Cell Counting Kit-8. Cells were seeded at 5,000 cells/well (NCI-H358), 2,000 cells/well (AGS) 2,000 cells/well (SW620) in 96-well assay plates (Corning-3699) and incubated overnight. […]
measured endpoint: IC50 (µM)
Give the value in µM but do not write µM after it.

compound	experimental system	IC50 / µM
CO[C@@H](C)c1ncc(N2CCN(C)CC2)cc1-c1c2c3cc(c(F)cc3n1CC(F)(F)F)-c1csc(n1)C[C@H](NC(=O)[C@H](C(C)C)N(C)C(=O)N1CC(C#CC(F)(F)F)C1)C(=O)N1CCC[C@H](N1)C(=O)OCC(C)(C)C2 (atropisomer, axis not shown; (M)) [Example 2]	AGS cells (KRAS G12D)	0.02
CCn1c(-c2cc(N3CCOCC3)cnc2[C@H](C)OC)c2c3cc(c(F)cc31)-c1csc(n1)C[C@H](NC(=O)[C@H](C(C)C)N(C)C(=O)[C@H]1C[C@@H](C#Cc3nccc(C(F)(F)F)n3)C1)C(=O)N1CCC[C@H](N1)C(=O)OCC(C)(C)C2 (atropisomer, axis not shown; (M)) [Example 21]	AGS cells (KRAS G12D)	0.231

Alright, here's another compound for you.
*Q* What does the record list as IC50 for CO[C@@H](C)c1ncc(N2CCN(C)CC2)cc1-c1c2c3cc(c(F)cc3n1CC(F)(F)F)-c1csc(n1)C[C@H](NC(=O)[C@H](C(C)C)N(C)C(=O)[C@H]1CC[C@@H](C#CC(F)(F)F)CC1)C(=O)N1CCC[C@H](N1)C(=O)OCC(C)(C)C2 (atropisomer, axis not shown; (M)) [Example 10] ?
*A* 0.876
